Assay Overview: Single oral dose pharmacokinetics: RvE1 exposure in blood plasma, small intestine tissue and colon tissue
Type: in vivo, mouse
Test Context: male, C57BL6/J, mouse, plasma; Blood; single oral dose 10 mg/kg RvE1-Mg-di-lysinate
Where a name gives a salt, the structure may show the parent alone.
Quantity Name: Tmax
Kindly format the answer as number then unit.

The measured Tmax associated with CC[C@@H](O)/C=C/C=C\C[C@@H](O)/C=C/C=C/C=C\[C@@H](O)CCCC(=O)O [RvE1-Mg-Lys, bis(RvE1) magnesium L-lysinate salt] reads 15 min

====

Assay Overview: Pharmacokinetic analysis of blood and colon tissue after intracolonic administration
Format: in vivo
Test Context: mouse, 15 ug/day, blood, read-out: RvE1 Tmax (converted)
Where a name gives a salt, the structure may show the parent alone.
Quantity Name: Tmax (min)
Report the figure in min without appending any unit label.

The measured Tmax associated with CC[C@@H](O)/C=C/C=C\C[C@@H](O)/C=C/C=C/C=C\[C@@H](O)CCCC(=O)O [RvE1-Mg-Lys, bis(RvE1) magnesium L-lysinate salt] reads 15
